Target or system Phospholipase A2 (Homo sapiens, UniProt P04054): recorded pIC50 listed per item.
The read-out pIC50 is expressed as -log10 of concentration in moles per litre.

molecule=O=C(CBr)c1ccc(Br)cc1 recorded_measurement=3.26

Q: Please list pIC50 recorded for the molecule CCCCCCCCCCC/C=C/C(C)(C)/C=C/CCCC(=O)O
Ans: 4.80

Q: Give pIC50 for the following molecule: CC(C)=CCC/C(C)=C/C/C(C=O)=C\CCC1=CC(=O)OC1O (stereo not drawn)
Ans: 4.59
